# experiment.notes: Pharmacokinetics in rats after SC and IV administration
# condition.details: rat, in vivo, sc, 0.1 mg/kg
Where a SMILES comes first, the peptide text is derived from it. [ ]: non-standard residue; d: D form. Arg(Me) = CNC(=N)NCCC[C@H](N)C(=O)O; Hyp = O=C(O)[C@@H]1C[C@@H](O)CN1; azaGly = NNC(=O)O
property: Tmax

(Q) Tmax lookup needed for CNC(=N)NCCC[C@H](NC(=O)[C@H](CC(C)C)NC(=O)NNC(=O)[C@H](Cc1ccccc1)NC(=O)[C@@H](NC(=O)[C@H](CC(N)=O)NC(=O)[C@@H]1C[C@@H](O)CN1C(=O)[C@@H](Cc1ccc(O)cc1)NC(C)=O)[C@@H](C)O)C(=O)N[C@@H](Cc1c[nH]c2ccccc12)C(N)=O [Compound 1] (Ac-[dY][Hyp]NTF[azaGly]L[Arg(Me)]W-NH2) , thanks.
(A) 30 min

* * *

# experiment.notes: Pharmacokinetics in monkeys after SC and IV administration
# condition.details: monkey, in vivo, iv, 1 mg/kg, T½ β
Where a SMILES comes first, the peptide text is derived from it. [ ]: non-standard residue; d: D form. Arg(Me) = CNC(=N)NCCC[C@H](N)C(=O)O; Hyp = O=C(O)[C@@H]1C[C@@H](O)CN1; azaGly = NNC(=O)O
property: half-life (h)
Express the result in h but write the number alone.

(Q) Returns the measured half-life for the input molecule. Input: CNC(=N)NCCC[C@H](NC(=O)[C@H](CC(C)C)NC(=O)NNC(=O)[C@H](Cc1ccccc1)NC(=O)[C@@H](NC(=O)[C@H](CC(N)=O)NC(=O)[C@@H]1C[C@@H](O)CN1C(=O)[C@@H](Cc1ccc(O)cc1)NC(C)=O)[C@@H](C)O)C(=O)N[C@@H](Cc1c[nH]c2ccccc12)C(N)=O [Compound 1] (Ac-[dY][Hyp]NTF[azaGly]L[Arg(Me)]W-NH2)
(A) 1.2

* * *

# experiment.notes: Pharmacokinetics in monkeys after SC and IV administration
# condition.details: monkey, in vivo, sc, 1 mg/kg
Where a SMILES comes first, the peptide text is derived from it. [ ]: non-standard residue; d: D form. Arg(Me) = CNC(=N)NCCC[C@H](N)C(=O)O; Hyp = O=C(O)[C@@H]1C[C@@H](O)CN1; azaGly = NNC(=O)O
property: bioavailability (%)
Supply the numeric figure in %, leaving out any unit text.

(Q) Which value of bioavailability has been reported for CNC(=N)NCCC[C@H](NC(=O)[C@H](CC(C)C)NC(=O)NNC(=O)[C@H](Cc1ccccc1)NC(=O)[C@@H](NC(=O)[C@H](CC(N)=O)NC(=O)[C@@H]1C[C@@H](O)CN1C(=O)[C@@H](Cc1ccc(O)cc1)NC(C)=O)[C@@H](C)O)C(=O)N[C@@H](Cc1c[nH]c2ccccc12)C(N)=O [Compound 1] (Ac-[dY][Hyp]NTF[azaGly]L[Arg(Me)]W-NH2) in the records?
(A) 90.1

* * *

# experiment.notes: Single dose PK, phase 1, healthy European men
# Format: in vivo, human
# condition.details: male, human, plasma, single SC 0.003 mg, geometric mean
Where a SMILES comes first, the peptide text is derived from it. [ ]: non-standard residue; d: D form. Arg(Me) = CNC(=N)NCCC[C@H](N)C(=O)O; Hyp = O=C(O)[C@@H]1C[C@@H](O)CN1; azaGly = NNC(=O)O
property: Cmax (ng/mL)
Write the answer as a number in ng/mL, unit excluded.

(Q) Name the recorded Cmax for CC(=O)O.CNC(=N)NCCC[C@H](NC(=O)[C@H](CC(C)C)NC(=O)NNC(=O)[C@H](Cc1ccccc1)NC(=O)[C@@H](NC(=O)[C@H](CC(N)=O)NC(=O)[C@@H]1C[C@@H](O)CN1C(=O)[C@@H](Cc1ccc(O)cc1)NC(C)=O)[C@@H](C)O)C(=O)N[C@@H](Cc1c[nH]c2ccccc12)C(N)=O [API-MA] (Ac-[dY][Hyp]NTF[azaGly]L[Arg(Me)]W-NH2) .
(A) 0.0424
